- Tested on: biotinyl-Trp-oxazolone
- procedure_text: self-aminoacylation, catalytic enhancement (BWO) (fold over background); higher = more active; k-Seq, kA / k0A0; sequences stand for … in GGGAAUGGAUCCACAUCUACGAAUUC…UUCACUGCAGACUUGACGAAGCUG
Fewer inactive variants are shown than the library holds.
Kindly return criterion met if reported self-aminoacylation is no lower than 4; return criterion not met if it is lower.

entry_sequence	measured_target	qualitative_label
AUUCCCCUGAUCAUCGAGUGA [Fam2.1 aminoacylation ribozyme variant]	biotinyl-Trp-oxazolone	criterion met
AUUCACCUAGGGCAUCGGUUG [Fam2.2 aminoacylation ribozyme variant]	biotinyl-Trp-oxazolone	criterion not met
AUUAGCCUGGUCAUCGAGGGA [Fam2.1 aminoacylation ribozyme variant]	biotinyl-Trp-oxazolone	criterion not met
CUGCUUCAAACAAUCGGGCUG [Fam1A.1 aminoacylation ribozyme variant]	biotinyl-Trp-oxazolone	criterion met
AUUACCCUGGUCACCGAGUGC [Fam2.1 aminoacylation ribozyme variant]	biotinyl-Trp-oxazolone	criterion not met
AUGGACCUAGGUCAUCGGGUG [Fam2.2 aminoacylation ribozyme variant]	biotinyl-Trp-oxazolone	criterion met
AUUCACCGAGGUCAUCGGGGG [Fam2.2 aminoacylation ribozyme variant]	biotinyl-Trp-oxazolone	criterion not met
AUUGACCUAGGUGAUCGGGUG [Fam2.2 aminoacylation ribozyme variant]	biotinyl-Trp-oxazolone	criterion met
